molecular target: IgG Anti-HIV; type: binding
endpointLabel: Kd (µM)
Give just the numeric value; µM need not be written.

Value of Kd reported for the sequence CALDRWEKIRLR is 0.24

====

biological target: IgG Anti-Ebola; type: binding
endpointLabel: Kd
Number plus unit, in that order.

Memo: CHNTPVYKLDISEATQV , reported Kd: 1400 nM

Taken from patent US12351855B2.
